Quick reference for MIC among some molecules
# System: Escherichia coli
# Measurement notes: microbe, parasite or virus in culture
# Assay type: functional
# Settings: DH5alpha

[
  {
    "Molecule": "CC(C)(O/N=C(\\C(=O)N[C@@H]1C(=O)N2C(C(=O)[O-])=C(C[n+]3ccccc3)CS[C@H]12)c1csc(N)n1)C(=O)O",
    "Readout units": "µg/mL",
    "Sign qualifier": "=",
    "MIC": 512
  },
  {
    "Molecule": "C[C@H]1[C@H](NC(=O)/C(=N\\OC(C)(C)C(=O)O)c2csc(N)n2)C(=O)N1S(=O)(=O)O (stereo in doubt)",
    "Readout units": "µg/mL",
    "Sign qualifier": "=",
    "MIC": 64
  },
  {
    "Molecule": "CC(=O)OCC1=C(C(=O)O)N2C(=O)[C@@H](NC(=O)Cc3cccs3)[C@H]2SC1",
    "Readout units": "µg/mL",
    "Sign qualifier": "=",
    "MIC": 16
  },
  {
    "Molecule": "CC1(C)S[C@@H]2[C@H](NC(=O)[C@H](C(=O)O)c3ccsc3)C(=O)N2[C@H]1C(=O)O",
    "Readout units": "µg/mL",
    "Sign qualifier": ">",
    "MIC": 2050
  },
  {
    "Molecule": "CO/N=C(\\C(=O)N[C@@H]1C(=O)N2C(C(=O)[O-])=C(C[N+]3(C)CCCC3)CS[C@H]12)c1csc(N)n1",
    "Readout units": "µg/mL",
    "Sign qualifier": "=",
    "MIC": 16
  },
  {
    "Molecule": "CO/N=C(\\C(=O)N[C@@H]1C(=O)N2C(C(=O)O)=C(COC(N)=O)CS[C@H]12)c1ccco1",
    "Readout units": "µg/mL",
    "Sign qualifier": "=",
    "MIC": 8
  },
  {
    "Molecule": "CO[C@@]1(NC(=O)Cc2cccs2)C(=O)N2C(C(=O)O)=C(COC(N)=O)CS[C@@H]21",
    "Readout units": "µg/mL",
    "Sign qualifier": "=",
    "MIC": 8
  }
]
